kon values, listed per item
tested_on: T1, human C1s (human, UniProt P09871 16-688)
T1 construct: also called hC1s; serum-derived human C1s (CompTech)
T1 sequence: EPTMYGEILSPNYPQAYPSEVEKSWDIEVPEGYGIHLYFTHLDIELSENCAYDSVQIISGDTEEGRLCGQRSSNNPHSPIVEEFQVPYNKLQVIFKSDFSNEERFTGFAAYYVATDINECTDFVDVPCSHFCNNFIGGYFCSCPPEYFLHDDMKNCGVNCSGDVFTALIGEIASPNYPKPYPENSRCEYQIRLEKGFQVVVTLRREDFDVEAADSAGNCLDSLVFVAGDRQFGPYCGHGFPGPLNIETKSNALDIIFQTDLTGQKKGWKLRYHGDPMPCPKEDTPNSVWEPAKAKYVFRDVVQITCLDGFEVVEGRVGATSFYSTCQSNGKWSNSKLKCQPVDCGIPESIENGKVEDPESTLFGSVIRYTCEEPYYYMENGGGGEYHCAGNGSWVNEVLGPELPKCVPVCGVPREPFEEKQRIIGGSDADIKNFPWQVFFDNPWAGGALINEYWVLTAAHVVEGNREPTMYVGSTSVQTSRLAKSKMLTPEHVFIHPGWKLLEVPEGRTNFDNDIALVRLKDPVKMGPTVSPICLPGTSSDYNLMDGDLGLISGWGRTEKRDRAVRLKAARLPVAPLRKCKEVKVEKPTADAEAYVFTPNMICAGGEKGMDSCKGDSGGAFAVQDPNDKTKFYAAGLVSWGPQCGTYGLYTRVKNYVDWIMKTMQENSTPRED
test_method_notes: SPR, Ab captured; pH 7.4, 1.2 mM Ca
property_measured: kon (M⁻¹ s⁻¹)

[
  {
    "binder": "C1_IPN92H0038-SG4GK/IPN93L0028-SK1 (antibody, human IgG4 S228P, kappa, name in Kabat numbering, V domains shown, also called IPN92H0038/IPN93L0028) VH: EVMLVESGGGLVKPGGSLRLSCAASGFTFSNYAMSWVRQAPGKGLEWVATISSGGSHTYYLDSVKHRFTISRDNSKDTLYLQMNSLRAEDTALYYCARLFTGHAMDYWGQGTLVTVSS VL: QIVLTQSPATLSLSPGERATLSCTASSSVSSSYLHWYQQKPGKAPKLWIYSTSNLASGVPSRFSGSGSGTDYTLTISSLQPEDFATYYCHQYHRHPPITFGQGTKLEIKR",
    "unit_string": "M⁻¹ s⁻¹",
    "result_number": 528000
  },
  {
    "binder": "C1_IPN92H0033-SG4GK/IPN93L0031-SK1 (antibody, human IgG4 S228P, kappa, name in Kabat numbering, V domains shown, also called IPN92H0033/IPN93L0031) VH: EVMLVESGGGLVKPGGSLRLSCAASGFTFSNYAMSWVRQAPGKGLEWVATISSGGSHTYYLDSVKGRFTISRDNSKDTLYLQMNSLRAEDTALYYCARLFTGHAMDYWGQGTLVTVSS VL: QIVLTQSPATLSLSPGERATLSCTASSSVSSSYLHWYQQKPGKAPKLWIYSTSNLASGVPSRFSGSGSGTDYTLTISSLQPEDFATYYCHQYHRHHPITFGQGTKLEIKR",
    "unit_string": "M⁻¹ s⁻¹",
    "result_number": 522000
  },
  {
    "binder": "C1_IPN92H0026-SG4GK/IPN93L0030-SK1 (antibody, human IgG4 S228P, kappa, name in Kabat numbering, V domains shown, also called IPN92H0026/IPN93L0030) VH: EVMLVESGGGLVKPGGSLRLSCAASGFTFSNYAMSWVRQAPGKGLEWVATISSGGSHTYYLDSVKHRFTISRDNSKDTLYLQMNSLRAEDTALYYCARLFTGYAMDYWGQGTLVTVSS VL: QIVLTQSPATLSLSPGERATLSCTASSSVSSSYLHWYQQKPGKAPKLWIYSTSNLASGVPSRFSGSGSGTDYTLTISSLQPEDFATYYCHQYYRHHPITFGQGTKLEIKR",
    "unit_string": "M⁻¹ s⁻¹",
    "result_number": 414000
  },
  {
    "binder": "C1_IPN009VH2-SG4GK/IPN93L0028-SK1 (antibody, human IgG4 S228P, kappa, name in Kabat numbering, V domains shown, also called IPN009VH2/IPN93L0028) VH: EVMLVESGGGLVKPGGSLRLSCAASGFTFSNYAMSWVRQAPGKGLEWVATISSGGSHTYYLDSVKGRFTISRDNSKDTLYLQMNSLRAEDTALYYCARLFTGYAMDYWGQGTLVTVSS VL: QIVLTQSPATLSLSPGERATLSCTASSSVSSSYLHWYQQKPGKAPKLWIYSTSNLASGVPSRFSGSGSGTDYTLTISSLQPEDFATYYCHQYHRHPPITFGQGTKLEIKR",
    "unit_string": "M⁻¹ s⁻¹",
    "result_number": 343000
  },
  {
    "binder": "C1_IPN92H0048-SG4GK/IPN93L0024-SK1 (antibody, human IgG4 S228P, kappa, name in Kabat numbering, V domains shown, also called IPN92H0048/IPN93L0024) VH: EVMLVESGGGLVKPGGSLRLSCAASGHTFSNYAMSWVRQAPGKGLEWVATISSGGSHTYYLDSVKGRFTISRDNSKDTLYLQMNSLRAEDTALYYCARLFTGHAMDYWGQGTLVTVSS VL: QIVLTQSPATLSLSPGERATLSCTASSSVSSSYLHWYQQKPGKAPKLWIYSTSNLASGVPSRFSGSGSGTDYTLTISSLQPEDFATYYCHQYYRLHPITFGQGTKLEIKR",
    "unit_string": "M⁻¹ s⁻¹",
    "result_number": 261000
  }
]
